- Measured on: recombinant soluble homotrimeric HA of A/South Carolina/1/18 (H1N1) (Influenza A virus A/South Carolina/1/18 (H1N1))
- Protocol details: trimeric HA microarray, transfection supernatant set 5
- Test settings: remark: other sources report otherwise
Result type: Trimeric HA Binding: RLU (RLU)
One number for each entry, in RLU.

| Binder | Endpoint value |
| --- | --- |
| TCN-544 (5082_A19) (antibody, V domains shown) VH: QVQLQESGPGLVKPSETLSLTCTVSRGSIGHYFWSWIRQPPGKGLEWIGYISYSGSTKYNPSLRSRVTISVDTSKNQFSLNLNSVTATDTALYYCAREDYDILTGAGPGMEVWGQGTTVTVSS VL: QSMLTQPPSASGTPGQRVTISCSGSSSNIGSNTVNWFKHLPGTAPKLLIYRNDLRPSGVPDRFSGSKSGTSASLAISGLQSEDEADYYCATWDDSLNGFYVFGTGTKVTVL | 1330 |

--- query ---
Query: Value lookup for Trimeric HA Binding: RLU; key = TCN-539 (5056_A08) (antibody, V domains shown) VH: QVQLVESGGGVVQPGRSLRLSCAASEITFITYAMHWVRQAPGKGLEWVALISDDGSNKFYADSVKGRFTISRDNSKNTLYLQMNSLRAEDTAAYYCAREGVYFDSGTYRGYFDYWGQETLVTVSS VL: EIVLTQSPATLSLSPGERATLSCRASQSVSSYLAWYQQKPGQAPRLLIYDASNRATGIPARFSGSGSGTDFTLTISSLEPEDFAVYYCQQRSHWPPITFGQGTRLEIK
Reply: 5330
